Cited source: patent US20220195023A1

Molecular target: … (Plasmodium falciparum)
Assay: BLI, target on sensor
PROPERTY LABEL: Kd (nM)
Return type: number; implicit unit nM.

(Q) Give the reported Kd for this binder. AB-007068 (antibody, V domains shown) VH: QMQLVESGGGVVQPGRSLRLSCTASGFTFSTYAMHWVRQSPGQGLQWVAVISYHSTNKYYEDSVRGRFTISRDNSKNTLYLQMNSLRAEDTAVYYCARDGYSSSFFDFWGQGTLVTVSS VL: DIQMTQSPSTLSASVGDRVAITCRASQSISRWLAWYQQQPGKAPKLLMSLASVLESGVPSRFSGSGSGTEFTLTISSLQPDDFATYYCQHYNSYFVTFGQGTKVEIK
(A) 18.3

(Q) Entry AB-007029 (antibody, V domains shown) VH: QVQLVESGGGVVQPGRSLRLSCTASGFTFSTYAMHWVRQSPGQGLQWVAVISYHSTNKYYEDSVRGRFTISRDNSKNTLYLQMNSLRAEDTAVYYCARDGYSSSFFDFWGQGTLVTVSS VL: DIQMTQSPSTLSASVGDRVAITCRASQSISRWLAWYQQQPGKAPKLLMSGASVLESGVPSRFSGSGSGTEFTLTISSLQPDDFATYYCQHYNSYFVTFGQGTKVEIK needs its Kd filled in; supply it.
(A) 5.62

(Q) Given the binder AB-007070 (antibody, V domains shown) VH: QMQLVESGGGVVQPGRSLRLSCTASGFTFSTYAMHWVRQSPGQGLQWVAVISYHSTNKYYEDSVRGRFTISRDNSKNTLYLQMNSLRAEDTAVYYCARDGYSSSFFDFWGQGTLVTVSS VL: DIQMTQSPSTLSASVGDRVAITCRASQSISRWLAWYQQQPGKAPKLLMSAASVLESGVPSRFSGSGSGTEFTLTISSLQPDDFATYYCQHYNSYFVTFGQGTKVEIK , write its reported Kd.
(A) 15.5
